src = patent US8299074B2

Test system: U937 cells
Test: LPS-induced IL-8 release in U937 cells
Format: cell-based
Details: Homo sapiens, read-out: DU937 (LPS) IL-8 IC50
pIC50: −log10 of the molar value.
ENDPOINT: pIC50

These recorded examples may help you get a feel for the data.
>>> print(df.to_string())
                                   compound  result
0  COCCOCC(=O)N1CCC(NC(=O)Nc2cc(Oc3ccc(NC(=O)Nc4cc(C(C)(C)C)nn4-c4ccc(C)cc4)c4ccccc34)ccn2)CC1 [Example 40]  > 8.00
1  Cc1ccc(-n2nc(C(C)(C)C)cc2NC(=O)Nc2ccc(Oc3ccnc(NC(=O)N(C)C)c3)c3ccccc23)cc1 [Example 44]  > 8.00
2  COCCOCC(=O)Nc1cc(Oc2ccc(NC(=O)Nc3cc(C(C)(C)C)nn3-c3ccc(C)cc3)c3ccccc23)ccn1 [Example 1]  > 5.30

-- ask Report pIC50 for Cc1ccc(-n2nc(C(C)(C)C)cc2NC(=O)Nc2ccc(Oc3ccnc(NC(=O)CNC(=O)c4ccncc4)c3)c3ccccc23)cc1 [Example 17] please.
-- reply > 8.00

-- ask Entry Cc1ccc(-n2nc(C(C)(C)C)cc2NC(=O)Nc2ccc(Oc3ccnc(NC(=O)NC4CCN(C)CC4)c3)c3ccccc23)cc1 [Example 50] please
-- reply > 8.00

====

System: Differentiated U937 cells
Experiment: MTT assay (cell viability)
Assay type: cell-based, human
Settings: Table 3, second MTT column; loss of cell viability at 1 μg/ml
ENDPOINT: DU937 (cell viability) MTT assay 4 h

These recorded examples may help you get a feel for the data.
>>> print(df.to_string())
                           smiles_structure              target_entity     result
0  Cc1ccc(-n2nc(C(C)(C)C)cc2NC(=O)Nc2ccc(Oc3ccnc(NC(=O)NCc4cc(C)no4)c3)c3ccccc23)cc1  Differentiated U937 cells  − (<=30%)
1  Cc1ccc(-n2nc(C(C)(C)C)cc2NC(=O)Nc2ccc(Oc3ccnc(NC(=O)N4CCCC4)c3)c3ccccc23)cc1  Differentiated U937 cells  − (<=30%)
2  Cc1ccc(-n2nc(C(C)(C)C)cc2NC(=O)Nc2ccc(Oc3ccnc(NC(=O)NCC(=O)N4CCCC4)c3)c3ccccc23)cc1  Differentiated U937 cells  − (<=30%)
3  CC(=O)N1CCC(NC(=O)Nc2cc(Oc3ccc(NC(=O)Nc4cc(C(C)(C)C)nn4-c4ccc(C)cc4)c4ccccc34)ccn2)CC1  Differentiated U937 cells   + (>30%)

Now examine the next entry.
-- ask Under Differentiated U937 cells: DU937 (cell viability) MTT assay 4 h value of Cc1ccc(-n2nc(C(C)(C)C)cc2NC(=O)Nc2ccc(Oc3ccnc(NC(=O)NCC(=O)N4CCN(C)CC4)c3)c3ccccc23)cc1 ?
-- reply − (<=30%)

====

Target: p38 MAPK alpha (MAPK14) (Homo sapiens)
Construct: purchased Invitrogen
Sequence (Q16539 whole entry): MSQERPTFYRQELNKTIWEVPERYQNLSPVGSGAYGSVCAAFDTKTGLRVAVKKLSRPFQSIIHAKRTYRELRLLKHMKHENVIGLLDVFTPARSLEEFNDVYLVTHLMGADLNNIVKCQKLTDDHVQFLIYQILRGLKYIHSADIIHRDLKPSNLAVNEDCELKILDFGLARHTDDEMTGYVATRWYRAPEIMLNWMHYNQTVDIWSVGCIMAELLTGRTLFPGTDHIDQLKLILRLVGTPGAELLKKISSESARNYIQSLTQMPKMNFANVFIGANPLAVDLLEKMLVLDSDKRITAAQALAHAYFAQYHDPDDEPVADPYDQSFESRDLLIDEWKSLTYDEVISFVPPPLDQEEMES
Experiment: Enzyme inhibition assay, p38 MAPK alpha (FRET, Z-LYTE, via MAPKAP-K2)
Type: biochemical
Settings: Table 3; read-out: Enzyme p38α IC50
ENDPOINT: IC50

These recorded examples may help you get a feel for the data.
                                   compound     result
0  CNC(=O)Nc1cc(Oc2ccc(NC(=O)Nc3cc(C(C)(C)C)nn3-c3ccc(C)cc3)c3ccccc23)ccn1 [Example 36]  < 5000 nM
1  Cc1ccc(-n2nc(C(C)(C)C)cc2NC(=O)Nc2ccc(Oc3ccnc(NC(=O)N4CC[C@@H](N(C)C)C4)c3)c3ccccc23)cc1 [Example 54]    < 10 nM
2  Cc1ccc(-n2nc(C(C)(C)C)cc2NC(=O)Nc2ccc(Oc3ccnc(NC(=O)N(C)CCN4CCOCC4)c3)c3ccccc23)cc1 [Example 46]    < 10 nM
3  Cc1ccc(-n2nc(C(C)(C)C)cc2NC(=O)Nc2ccc(Oc3ccnc(NC(=O)NC4CC4)c3)c3ccccc23)cc1 [Example 33]  < 5000 nM
4  CC(=O)N1CCC(NC(=O)Nc2cc(Oc3ccc(NC(=O)Nc4cc(C(C)(C)C)nn4-c4ccc(C)cc4)c4ccccc34)ccn2)CC1 [Example 39]    < 10 nM
5  Cc1ccc(-n2nc(C(C)(C)C)cc2NC(=O)Nc2ccc(Oc3ccnc(NC(=O)N4CCC(O)CC4)c3)c3ccccc23)cc1 [Example 51]    < 10 nM
6  Cc1ccc(-n2nc(C(C)(C)C)cc2NC(=O)Nc2ccc(Oc3ccnc(NC(=O)N4CCOCC4)c3)c3ccccc23)cc1 [Example 42]  < 5000 nM
7  Cc1ccc(-n2nc(C(C)(C)C)cc2NC(=O)Nc2ccc(Oc3ccnc(NC(=O)N4CCCC4)c3)c3ccccc23)cc1 [Example 55]    < 10 nM

-- ask Report IC50 for Cc1ccc(-n2nc(C(C)(C)C)cc2NC(=O)Nc2ccc(Oc3ccnc(NC(=O)NCc4cc(C)no4)c3)c3ccccc23)cc1 [Example 49] please.
-- reply < 10 nM

-- ask Entry Cc1ccc(-n2nc(C(C)(C)C)cc2NC(=O)Nc2ccc(Oc3ccnc(NC(=O)N(C)C)c3)c3ccccc23)cc1 [Example 44] please
-- reply < 5000 nM

-- ask Entry Cc1ccc(-n2nc(C(C)(C)C)cc2NC(=O)Nc2ccc(Oc3ccnc(NC(=O)N4CCN(C)CC4)c3)c3ccccc23)cc1 [Example 43] please
-- reply < 10 nM
